# Experimental Target: HCV RNA-dependent RNA polymerase (NS5B) (Hepatitis C virus genotype 1b (isolate BK) (HCV))
# Assay Remarks: RNA-Dependent RNA HCV NS5B (polymerase) Assay and IC50 Determination
# Assay type: biochemical
# Experimental Context: purified HCV NS5B polymerase, polyA:U16 substrate, 32P-UTP incorporation; read-out: IC50
pIC50: −log10 of the molar value.
Reported Property: pIC50

# input // pIC50 lookup, key: `CNC(=O)c1c(-c2ccc(F)cc2)oc2cc(N(CCOCCOCCOC(C)(C)C(=O)O)S(C)(=O)=O)c(C3CC3)cc12`
# output 6.00 to 7.00

# input // pIC50 lookup, key: `CNC(=O)c1c(-c2ccc(F)cc2)oc2cc(N(CCOCCOCCOCCCc3cccc(C(=O)CC(=O)C(=O)O)c3)S(C)(=O)=O)c(C3CC3)cc12`
# output < 6.00

# input // pIC50 lookup, key: CNC(=O)c1c(-c2ccc(F)cc2)oc2cc(N(CC(=O)NC3(C(=O)NCc4cccc(C(=O)C=C(O)C(=O)O)c4)CC3)S(C)(=O)=O)c(C3CC3)cc12 [Compound 09-14D]
# output < 6.00

----------
# Experimental Target: HCV RNA-dependent RNA polymerase (NS5B) (Hepatitis C virus genotype 1b (isolate BK) (HCV), UniProt P26663)
# Sequence (P26663 2420-3010): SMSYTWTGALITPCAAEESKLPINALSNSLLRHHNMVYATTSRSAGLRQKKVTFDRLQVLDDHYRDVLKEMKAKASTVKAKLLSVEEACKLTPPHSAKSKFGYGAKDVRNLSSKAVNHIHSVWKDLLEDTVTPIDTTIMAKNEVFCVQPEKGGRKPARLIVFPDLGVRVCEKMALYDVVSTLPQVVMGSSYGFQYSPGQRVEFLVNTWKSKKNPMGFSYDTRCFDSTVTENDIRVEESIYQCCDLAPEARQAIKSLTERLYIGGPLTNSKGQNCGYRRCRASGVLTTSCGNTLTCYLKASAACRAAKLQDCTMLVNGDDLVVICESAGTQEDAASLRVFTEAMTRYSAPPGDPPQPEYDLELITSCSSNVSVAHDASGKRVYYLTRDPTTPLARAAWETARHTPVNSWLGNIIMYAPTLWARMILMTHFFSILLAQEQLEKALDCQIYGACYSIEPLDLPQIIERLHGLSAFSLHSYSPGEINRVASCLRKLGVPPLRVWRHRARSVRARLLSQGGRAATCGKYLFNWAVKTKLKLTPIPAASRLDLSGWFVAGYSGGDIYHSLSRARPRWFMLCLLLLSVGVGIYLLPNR
# Assay Remarks: RNA-Dependent RNA HCV NS5B (polymerase) Assay and IC50 Determination
# Assay type: biochemical
# Experimental Context: purified HCV NS5B polymerase, polyA:U16 substrate, 32P-UTP incorporation; read-out: IC50
Reported Property: IC50

Some solved entries appear below for comparison.
compound=CCCCOCCOCCOCCN(c1cc2oc(-c3ccc(F)cc3)c(C(=O)NC)c2cc1C1CC1)S(C)(=O)=O recorded_result="> 1000 nM"
compound=CNC(=O)c1c(-c2ccc(F)cc2)oc2cc(N(CCOCCOCCOc3cccc(C(=O)O)c3)S(C)(=O)=O)c(C3CC3)cc12 recorded_result="100 to 1000 nM"
compound=CNC(=O)c1c(-c2ccc(F)cc2)oc2cc(N(CCOCCOCCc3ccccc3C(=O)O)S(C)(=O)=O)c(C3CC3)cc12 recorded_result="< 100 nM"

# input // IC50 lookup, key: CNC(=O)c1c(-c2ccc(F)cc2)oc2cc(N(CC(=O)NC3(C(=O)NCc4cccc(C(=O)C=C(O)C(=O)O)c4)CCCC3)S(C)(=O)=O)c(C3CC3)cc12 [Compound 09-14E]
# output > 1000 nM

# input // IC50 lookup, key: CNC(=O)c1c(-c2ccc(F)cc2)oc2cc(N(CCOCCOCc3cccc(C(=O)/C=C(\O)C(=O)O)c3)S(C)(=O)=O)c(C3CC3)cc12 [Compound 02-10A]
# output 100 to 1000 nM

# input // IC50 lookup, key: CNC(=O)c1c(-c2ccc(F)cc2)oc2cc(N(CCOCCOCCOC(C)C(=O)O)S(C)(=O)=O)c(C3CC3)cc12 (stereo not drawn)
# output 100 to 1000 nM

# input // IC50 lookup, key: `CCOC(=O)c1cccc(CCOCCOCCN(c2cc3oc(-c4ccc(F)cc4)c(C(=O)NC)c3cc2C2CC2)S(C)(=O)=O)c1`
# output > 1000 nM

# input // IC50 lookup, key: `CNC(=O)c1c(-c2ccc(F)cc2)oc2cc(N(CCOCCCc3cccc(C(=O)/C=C(\O)C(=O)O)c3)S(C)(=O)=O)c(C3CC3)cc12`
# output > 1000 nM

# input // IC50 lookup, key: CNC(=O)c1c(-c2ccc(F)cc2)oc2cc(N(CCOCCOCCOCc3cccc(C(=O)/C=C(\O)C(=O)O)c3)S(C)(=O)=O)c(C3CC3)cc12 [Compound 02-10B]
# output > 1000 nM

----------
# Experimental Target: HCV RNA-dependent RNA polymerase (NS5B) (Hepatitis C virus genotype 1b (isolate BK) (HCV))
# Assay Remarks: RNA-Dependent RNA HCV NS5B (polymerase) Assay and IC50 Determination
# Assay type: biochemical
# Experimental Context: purified HCV NS5B polymerase, polyA:U16 substrate, 32P-UTP incorporation; read-out: IC50
The entries below are paired with their reported IC50.

molecule="CNC(=O)c1c(-c2ccc(F)cc2)oc2cc(N(CC(=O)NCC(=O)NCCCC(C)C(=O)OC)S(C)(=O)=O)c(C3CC3)cc12 (stereo not drawn)" reported_property=IC50 recorded_result="> 1000 nM"
molecule="CNC(=O)c1c(-c2ccc(F)cc2)oc2cc(N(CC(=O)NCC(=O)NCCCC(C)C(=O)O)S(C)(=O)=O)c(C3CC3)cc12 (stereo not drawn)" reported_property=IC50 recorded_result="> 1000 nM"

# evaluate next
# input // IC50 lookup, key: CNC(=O)c1c(-c2ccc(F)cc2)oc2cc(N(CCOCCOCCOCc3ccc(C(=O)O)cc3)S(C)(=O)=O)c(C3CC3)cc12 [Compound 30-7]
# output > 1000 nM

----------
The entries below are paired with their reported IC50.
# Experimental Target: HCV RNA-dependent RNA polymerase (NS5B) (Hepatitis C virus genotype 1b (isolate BK) (HCV), UniProt P26663)
# Assay Remarks: RNA-Dependent RNA HCV NS5B (polymerase) Assay and IC50 Determination
# Type: biochemical
# Experimental Context: purified HCV NS5B polymerase, polyA:U16 substrate, 32P-UTP incorporation; read-out: IC50
# Procedure: RNA-Dependent RNA HCV NS5B (polymerase) Assay and IC50 Determination. The reaction mixtures consisted of 50 mM Hepes-KOH, pH 7.5, 5 mM MgCl2, 5 mM DTT, 2% glycerol, 0.01% Triton® X-100, 0.5 uM polyA:U16 substrate, purified HCV RNA-dependent RNA polymerase, 10 μM UTP, and ^32P-UTP (Perkin Elmer). […] The filter was washed with 5×SSC (75 mM sodium citrate, pH 7 and 750 mM NaCl), and the radiolabeled RNA products were quantitated by microbeta (Perkin Elmer). […]

Some solved entries appear below for comparison.
compound_structure_string=CNC(=O)c1c(-c2ccc(F)cc2)oc2cc(N(CCOCCOCCOCCOCCOCc3ccc(C(C)=O)cc3)S(C)(=O)=O)c(C3CC3)cc12 recorded_result="> 1 µM"
compound_structure_string=CNC(=O)c1c(-c2ccc(F)cc2)oc2cc(N(CCOCCOCc3ccc(OC)c(C(=O)OC)c3)S(C)(=O)=O)c(C3CC3)cc12 recorded_result="> 1 µM"

# evaluate next
# input // IC50 lookup, key: `CNC(=O)c1c(-c2ccc(F)cc2)oc2cc(N(CCOCCOCc3ccc(C(=O)O)c4ccccc34)S(C)(=O)=O)c(C3CC3)cc12`
# output < 0.1 µM

----------
The entries below are paired with their reported IC50.
# Experimental Target: HCV RNA-dependent RNA polymerase (NS5B) (Hepatitis C virus genotype 1b (isolate BK) (HCV), UniProt P26663)
# Assay Remarks: RNA-Dependent RNA HCV NS5B (polymerase) Assay and IC50 Determination
# Type: biochemical
# Experimental Context: purified HCV NS5B polymerase, polyA:U16 substrate, 32P-UTP incorporation; read-out: IC50

Some solved entries appear below for comparison.
compound_structure_string=CNC(=O)c1c(-c2ccc(F)cc2)oc2cc(N(CCOCCCCc3ccc(C(=O)O)cc3)S(C)(=O)=O)c(C3CC3)cc12 recorded_result="0.1 to 1 µM"
compound_structure_string=CNC(=O)c1c(-c2ccc(F)cc2)oc2cc(N(CCOCCOCCOc3ccccc3C(=O)O)S(C)(=O)=O)c(C3CC3)cc12 recorded_result="< 0.1 µM"

# input // IC50 lookup, key: `CNC(=O)c1c(-c2ccc(F)cc2)oc2cc(N(CCCCCOCc3ccc(C(=O)OC)cc3)S(C)(=O)=O)c(C3CC3)cc12`
# output > 1 µM
